experiment: Comparison of absorption in rats after intragastric administration of free base and salt (plasma pharmacokinetics); assay type: in vivo, SD rats; conditions: SD rats, 20 μmol/kg, intragastric administration, plasma; listed as monohydrochloride monohydrate
readout: Cmax (nM)
Just the number in nM, nothing appended.

So for `C=C(F)C(=O)Nc1cc2c(Nc3ccc(F)c(Cl)c3)ncnc2cc1OCCCN1CCOCC1.Cl.O` , the logged Cmax turned out to be 980

====

Experiment: Comparison of absorption in rats after intragastric administration of free base and salt (plasma pharmacokinetics)
Format: in vivo, SD rats
Conditions: rat, po, 20 umol/kg; SD rats, 20 μmol/kg, intragastric administration, plasma; read-out: AUC (0-t) (converted)
Experimental: The blood sample was centrifuged at 8000 RPM for 5 minutes, followed by the isolation of the upper plasma. […] 200 μL of the supernatant was taken and centrifuged again for 10 minutes. 50 μL of the supernatant was injected in a 96-well plate. The plasma drug concentration was determined by LC/MS/MS, and the corresponding pharmacokinetic parameters were calculated.
readout: AUC (0-t) (µM·h)
# number only, unit µM·h dropped from output

Data point: C=C(F)C(=O)Nc1cc2c(Nc3ccc(F)c(Cl)c3)ncnc2cc1OCCCN1CCOCC1 [reference compound] ; AUC (0-t) = 2.05

====

test: Comparison of absorption in rats after intragastric administration of free base and salt (plasma pharmacokinetics); type: in vivo, SD rats; settings: rat, po, 20 umol/kg; SD rats, 20 μmol/kg, intragastric administration, plasma; read-out: MRT (0-T) (converted)
readout: MRT last (h)
The response must be a number in h with no trailing unit.

Just so you know, measured MRT last for C=C(F)C(=O)Nc1cc2c(Nc3ccc(F)c(Cl)c3)ncnc2cc1OCCCN1CCOCC1 [reference compound] came out at 6.66

The measured values listed here are drawn from patent US10870627B2.
